- Tested on: Escherichia coli TOP10
- TEST_DESCRIPTION: shrunken log2 fold change of peptide-encoding DNA abundance (4.5 h post-induction vs induction); higher = less antimicrobial activity (less host growth inhibition)
- CONDITION_INFO: time post-induction: 4.5 h; library: site-saturation at positions 5, 18, 19, 20
VALUE_TYPE: shrunken log2 fold change
The reply should be a number, written without any unit.

Reference set, count: 7
stdin: Give reported shrunken log2 fold change value for "RRIRQRPPRLPRPRPRPASAPRP"
stdout: 0.196

stdin: Give reported shrunken log2 fold change value for "RRIRMRPPRLPRPRPRPAKAPRP"
stdout: 0.0749

stdin: Give reported shrunken log2 fold change value for "RRIRPRPPRLPRPRPRPDKWPRP"
stdout: -0.0254

stdin: Give reported shrunken log2 fold change value for "RRIRCRPPRLPRPRPRPTMTPRP"
stdout: 0.106

stdin: Give reported shrunken log2 fold change value for "RRIRERPPRLPRPRPRPAEHPRP"
stdout: -0.0237

stdin: Give reported shrunken log2 fold change value for "RRIRHRPPRLPRPRPRPMPIPRP"
stdout: 0.113

stdin: Give reported shrunken log2 fold change value for "RRIRHRPPRLPRPRPRPNPKPRP"
stdout: -0.0127

Next:
stdin: Give reported shrunken log2 fold change value for "RRIRERPPRLPRPRPRPWWFPRP"
stdout: 0.137

###

- Test system: Escherichia coli TOP10
- TEST_DESCRIPTION: shrunken log2 fold change of peptide-encoding DNA abundance (4.5 h post-induction vs induction); higher = less antimicrobial activity (less host growth inhibition)
- CONDITION_INFO: time post-induction: 4.5 h; library: site-saturation at positions 5, 18, 19, 20
VALUE_TYPE: shrunken log2 fold change
The reply should be a number, written without any unit.

Reference set, count: 2
stdin: Give reported shrunken log2 fold change value for "RRIRCRPPRLPRPRPRPNISPRP"
stdout: 0.039

stdin: Give reported shrunken log2 fold change value for "RRIRRRPPRLPRPRPRPCNFPRP"
stdout: -0.0159

Next:
stdin: Give reported shrunken log2 fold change value for "RRIRPRPPRLPRPRPRPWCCPRP"
stdout: -0.0996

stdin: Give reported shrunken log2 fold change value for "RRIRWRPPRLPRPRPRPQPTPRP"
stdout: 0.334

stdin: Give reported shrunken log2 fold change value for "RRIRFRPPRLPRPRPRPKFRPRP"
stdout: -0.0326

stdin: Give reported shrunken log2 fold change value for "RRIRIRPPRLPRPRPRPPIPPRP"
stdout: 0.00551

stdin: Give reported shrunken log2 fold change value for "RRIRKRPPRLPRPRPRPCIWPRP"
stdout: 0.0573

stdin: Give reported shrunken log2 fold change value for "RRIRPRPPRLPRPRPRPNHHPRP"
stdout: -0.509

stdin: Give reported shrunken log2 fold change value for "RRIRMRPPRLPRPRPRPEFYPRP"
stdout: -0.056

stdin: Give reported shrunken log2 fold change value for "RRIRKRPPRLPRPRPRPMLAPRP"
stdout: 0.843

###

- System: Escherichia coli TOP10
- TEST_DESCRIPTION: shrunken log2 fold change of peptide-encoding DNA abundance (4.5 h post-induction vs induction); higher = less antimicrobial activity (less host growth inhibition)
- CONDITION_INFO: time post-induction: 4.5 h; library: site-saturation at positions 5, 18, 19, 20
VALUE_TYPE: shrunken log2 fold change
The reply should be a number, written without any unit.

stdin: Give reported shrunken log2 fold change value for "RRIRMRPPRLPRPRPRPIVTPRP"
stdout: -0.00781

stdin: Give reported shrunken log2 fold change value for "RRIRNRPPRLPRPRPRPQASPRP"
stdout: -0.187

Next:
stdin: Give reported shrunken log2 fold change value for "RRIRLRPPRLPRPRPRPEKEPRP"
stdout: 0.263

stdin: Give reported shrunken log2 fold change value for "RRIRVRPPRLPRPRPRPMKPPRP"
stdout: -0.0376

stdin: Give reported shrunken log2 fold change value for "RRIRLRPPRLPRPRPRPTKEPRP"
stdout: -0.0767

stdin: Give reported shrunken log2 fold change value for "RRIRIRPPRLPRPRPRPMFFPRP"
stdout: -0.534

stdin: Give reported shrunken log2 fold change value for "RRIRIRPPRLPRPRPRPFDWPRP"
stdout: 0.305

stdin: Give reported shrunken log2 fold change value for "RRIRWRPPRLPRPRPRPYLYPRP"
stdout: -0.216

stdin: Give reported shrunken log2 fold change value for "RRIRTRPPRLPRPRPRPFQKPRP"
stdout: -0.0018

stdin: Give reported shrunken log2 fold change value for "RRIRVRPPRLPRPRPRPNLTPRP"
stdout: -0.186

stdin: Give reported shrunken log2 fold change value for "RRIRLRPPRLPRPRPRPQTMPRP"
stdout: -0.0345

stdin: Give reported shrunken log2 fold change value for "RRIRGRPPRLPRPRPRPCCNPRP"
stdout: -0.265

stdin: Give reported shrunken log2 fold change value for "RRIRARPPRLPRPRPRPIEMPRP"
stdout: 0.563

stdin: Give reported shrunken log2 fold change value for "RRIRSRPPRLPRPRPRPERGPRP"
stdout: -0.0603

stdin: Give reported shrunken log2 fold change value for "RRIRERPPRLPRPRPRPYNQPRP"
stdout: -0.0858

###

- Test system: Escherichia coli TOP10
- TEST_DESCRIPTION: shrunken log2 fold change of peptide-encoding DNA abundance (4.5 h post-induction vs induction); higher = less antimicrobial activity (less host growth inhibition)
- CONDITION_INFO: time post-induction: 4.5 h; library: site-saturation at positions 5, 18, 19, 20
Label scheme for shrunken log2 fold change: lower than 0.03 is -1, 0.03 and above is 1.

Record excerpt, results attached:
stdin: hey, is shrunken log2 fold change for this one >= 0.03? "RRIRPRPPRLPRPRPRPWCFPRP"
stdout: -1

stdin: hey, is shrunken log2 fold change for this one >= 0.03? "RRIRKRPPRLPRPRPRPGMPPRP"
stdout: 1

stdin: hey, is shrunken log2 fold change for this one >= 0.03? "RRIRERPPRLPRPRPRPEWFPRP"
stdout: 1

For the next question, use this sequence.
stdin: hey, is shrunken log2 fold change for this one >= 0.03? "RRIRWRPPRLPRPRPRPVMQPRP"
stdout: 1

###

- System: Escherichia coli TOP10
- TEST_DESCRIPTION: shrunken log2 fold change of peptide-encoding DNA abundance (4.5 h post-induction vs induction); higher = less antimicrobial activity (less host growth inhibition)
- CONDITION_INFO: time post-induction: 4.5 h; library: site-saturation at positions 5, 18, 19, 20
Entries and their measured shrunken log2 fold change follow.
The reply should be a number, written without any unit.

stdin: Give reported shrunken log2 fold change value for "RRIRTRPPRLPRPRPRPSTQPRP"
stdout: -0.0187

stdin: Give reported shrunken log2 fold change value for "RRIRYRPPRLPRPRPRPWYWPRP"
stdout: -0.0383

stdin: Give reported shrunken log2 fold change value for "RRIRLRPPRLPRPRPRPEYDPRP"
stdout: 0.0855

stdin: Give reported shrunken log2 fold change value for "RRIRLRPPRLPRPRPRPWNRPRP"
stdout: -0.0226

Next:
stdin: Give reported shrunken log2 fold change value for "RRIRMRPPRLPRPRPRPGVCPRP"
stdout: 0.535

stdin: Give reported shrunken log2 fold change value for "RRIRSRPPRLPRPRPRPIIHPRP"
stdout: -0.526

stdin: Give reported shrunken log2 fold change value for "RRIRYRPPRLPRPRPRPLSRPRP"
stdout: -0.155

stdin: Give reported shrunken log2 fold change value for "RRIRNRPPRLPRPRPRPWGWPRP"
stdout: 0.242

stdin: Give reported shrunken log2 fold change value for "RRIRFRPPRLPRPRPRPRTYPRP"
stdout: -0.794

stdin: Give reported shrunken log2 fold change value for "RRIRCRPPRLPRPRPRPAGSPRP"
stdout: 0.432

stdin: Give reported shrunken log2 fold change value for "RRIRNRPPRLPRPRPRPWSAPRP"
stdout: -0.304

stdin: Give reported shrunken log2 fold change value for "RRIRPRPPRLPRPRPRPYKPPRP"
stdout: -0.481

stdin: Give reported shrunken log2 fold change value for "RRIRCRPPRLPRPRPRPSRRPRP"
stdout: -0.181

stdin: Give reported shrunken log2 fold change value for "RRIRLRPPRLPRPRPRPWTQPRP"
stdout: 0.13

###

- System: Escherichia coli TOP10;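 also: peptides expressed intracellularly from a pBAD plasmid library in pooled LB shake-flask culture, induced with 0.3% L-arabinose, DNA abundance read by NGS, three biological replicates, DESeq2 with apeglm shrinkage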
- TEST_DESCRIPTION: shrunken log2 fold change of peptide-encoding DNA abundance (4.5 h post-induction vs induction); higher = less antimicrobial activity (less host growth inhibition)
- CONDITION_INFO: time post-induction: 4.5 h; library: site-saturation at positions 5, 18, 19, 20
Label scheme for shrunken log2 fold change: lower than 0.09 is condition not met, 0.09 and above is condition met.

Record excerpt, results attached:
stdin: hey, is shrunken log2 fold change for this one >= 0.09? "RRIRIRPPRLPRPRPRPHANPRP"
stdout: condition not met

stdin: hey, is shrunken log2 fold change for this one >= 0.09? "RRIRKRPPRLPRPRPRPVEDPRP"
stdout: condition not met

Next:
stdin: hey, is shrunken log2 fold change for this one >= 0.09? "RRIRLRPPRLPRPRPRPKYRPRP"
stdout: condition not met

stdin: hey, is shrunken log2 fold change for this one >= 0.09? "RRIRYRPPRLPRPRPRPLTKPRP"
stdout: condition not met

stdin: hey, is shrunken log2 fold change for this one >= 0.09? "RRIRQRPPRLPRPRPRPLAEPRP"
stdout: condition not met

stdin: hey, is shrunken log2 fold change for this one >= 0.09? "RRIRKRPPRLPRPRPRPSYTPRP"
stdout: condition not met

stdin: hey, is shrunken log2 fold change for this one >= 0.09? "RRIRNRPPRLPRPRPRPIKWPRP"
stdout: condition not met

stdin: hey, is shrunken log2 fold change for this one >= 0.09? "RRIRDRPPRLPRPRPRPAIWPRP"
stdout: condition met

stdin: hey, is shrunken log2 fold change for this one >= 0.09? "RRIRPRPPRLPRPRPRPPGCPRP"
stdout: condition met

stdin: hey, is shrunken log2 fold change for this one >= 0.09? "RRIRCRPPRLPRPRPRPYYNPRP"
stdout: condition not met

stdin: hey, is shrunken log2 fold change for this one >= 0.09? "RRIRPRPPRLPRPRPRPDGQPRP"
stdout: condition met

stdin: hey, is shrunken log2 fold change for this one >= 0.09? "RRIRPRPPRLPRPRPRPSREPRP"
stdout: condition met

stdin: hey, is shrunken log2 fold change for this one >= 0.09? "RRIRMRPPRLPRPRPRPAKMPRP"
stdout: condition met

stdin: hey, is shrunken log2 fold change for this one >= 0.09? "RRIRRRPPRLPRPRPRPKHKPRP"
stdout: condition met

stdin: hey, is shrunken log2 fold change for this one >= 0.09? "RRIRIRPPRLPRPRPRPTTEPRP"
stdout: condition not met

Data origin: the supplement of paper PMC9112550
